biological target: human Npt2a (Homo sapiens, UniProt Q06495); assay: Npt2a activity cell based assay, membrane potential dye, CHO T-REx hNpt2a cells; details: doxycycline-induced, depolarization by sodium phosphate influx, average or median values if tested more than once
Please respond with reported IC50 for every item in the list.
Give bare numbers, in nM.

Please review the entries below; each comes with its answer.
Cc1nn(-c2cc(Nc3c(C)c(-c4ccc(Cl)cc4)nn3CC3CC3)ncn2)c(C)c1C(C)(C)O
23
COc1c(Nc2cc(-n3nc(C)c(CC(C)(C)O)c3C)ncn2)nn(C)c1-c1ccc(C#N)cc1
1500

We next turn to a different molecule, shown below.
[ask] // Input: COc1c(C)nn(-c2cc(Nc3c(C)c(-c4ccc(F)cc4)nn3C)ncn2)c1C . Output its IC50 only.
[reply] 21

* * *

Assignment: determine reported IC50 for the given compounds.
Target: human Npt2a (Homo sapiens)
Sequence (Q06495 1-639): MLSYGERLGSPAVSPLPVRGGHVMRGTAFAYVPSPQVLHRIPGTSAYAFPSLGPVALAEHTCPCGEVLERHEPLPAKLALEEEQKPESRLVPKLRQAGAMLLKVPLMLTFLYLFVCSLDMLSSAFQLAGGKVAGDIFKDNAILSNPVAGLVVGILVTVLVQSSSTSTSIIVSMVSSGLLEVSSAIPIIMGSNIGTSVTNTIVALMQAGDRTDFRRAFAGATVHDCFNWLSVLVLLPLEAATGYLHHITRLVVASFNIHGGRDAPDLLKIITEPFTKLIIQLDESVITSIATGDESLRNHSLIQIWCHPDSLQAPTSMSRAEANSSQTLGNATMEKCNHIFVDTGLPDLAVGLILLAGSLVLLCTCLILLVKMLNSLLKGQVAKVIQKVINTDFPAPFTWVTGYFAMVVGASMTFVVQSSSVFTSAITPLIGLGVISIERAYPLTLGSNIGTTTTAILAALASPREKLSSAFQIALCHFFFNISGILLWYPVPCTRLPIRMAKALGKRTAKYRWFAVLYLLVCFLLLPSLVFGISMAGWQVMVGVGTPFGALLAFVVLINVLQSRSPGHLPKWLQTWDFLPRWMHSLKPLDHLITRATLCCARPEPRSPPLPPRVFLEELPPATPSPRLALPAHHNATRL
Test: Npt2a activity cell based assay, membrane potential dye, CHO T-REx hNpt2a cells
Conditions: doxycycline-induced, depolarization by sodium phosphate influx, average or median values if tested more than once
Quote the value and follow it with the unit of measurement.

Cc1nn(-c2cc(Nc3c(C)c(-c4ccc(F)cc4)nn3CC3CC3)ncn2)c(C)c1C(C)(C)O [Example 159]
8 nM

List reported IC50 for each of these compounds:
1. Cc1nn(-c2cc(Nc3c(C)c(-c4ccc(F)cc4)nn3CC3CC3)ncn2)c2c1C(=O)CC2 [Example 394]
2. COc1ccc(-c2nn(CC3CC3)c(Nc3cc(-n4nc(C)c(Cl)c4C)ncn3)c2C)cc1 [Example 482]
3. Cc1nn(-c2cc(Nc3c(C)c(-c4ccc(F)cc4)nn3CC3CC3)ncn2)c(C)c1C(N(C)C)C(F)(F)F (racemic) [Example 504]
4. CC(=O)c1c(C)nn(-c2cc(Nc3nn(C)c(-c4ccc(F)cc4)c3C)ncn2)c1C [Example 113]
5. Cc1nn(-c2cc(Nc3c(C)c(-c4ccc(F)cc4)nn3CC3CC3)ncn2)c(C)c1OCC#N [Example 506]
6. CCc1c(-c2ccc(C#N)cc2)nn(CC2CC2)c1Nc1cc(-n2nc(C)c3ccncc32)ncn1 [Example 203]
7. CCc1c(Nc2cc(-n3nc(C)c(Cl)c3C(C)(C)O)ncn2)nn(C)c1-c1ccc(F)cc1 [Example 195]
8. Cc1nn(-c2cc(Nc3c(C)c(-c4ccc(F)cc4)nn3CC3CC3)ncn2)c(C)c1C(F)(F)F [Example 381]

[reply]
1. 71 nM
2. 52 nM
3. 5 nM
4. 32 nM
5. 28 nM
6. 1400 nM
7. 3 nM
8. 8 nM

I have 3 compounds here; please give me IC50 for each one.
1. Cc1cc(C)n(-c2cc(Nc3c(C)c(-c4ccc(F)cc4)nn3CC(O)C3CC3)ncn2)n1 (single isomer, unassigned) [Example 371]
2. Cc1nn(-c2cc(Nc3c(C)c(-c4ccc(F)cc4F)nn3CC3CC3)ncn2)c(C)c1C(C)(C)O [Example 368]
3. Cc1nn(-c2cc(Nc3nn(C)c(-c4ccc(F)cc4)c3Cl)ncn2)c(C)c1C(C)(C)O [Example 276]

[reply]
240 nM
7 nM
25 nM

List the reported IC50 of each compound below.
1. Cc1cc(C)n(-c2cc(Nc3c(C)c(-c4ccc(C(F)F)cc4)nn3C)ncn2)n1 [Example 407]
2. Cc1cc(C)n(-c2cc(Nc3c(Cl)c(-c4ccc(F)cc4)nn3CC(F)F)ncn2)n1 [Example 129]
3. CCOC(=O)c1c(C)nn(-c2cc(Nc3nn(C)c(-c4ccc(Cl)cc4)c3C)ncn2)c1C [Example 353]
4. COCCn1nc(-c2ccc(F)cc2)c(C)c1Nc1cc(-n2nc(C)cc2C(F)F)ncn1 [Example 527]

[reply]
1. 29 nM
2. 78 nM
3. 5 nM
4. 9 nM

[ask] Find IC50 for Cc1nn(-c2cc(Nc3nn(C)c(-c4ccc(F)cc4)c3OC(F)F)ncn2)c(C)c1Cl [Example 413] on human Npt2a (Homo sapiens) and write it down.
[reply] 4 nM

* * *

Kindly supply the reported pIC50 values for the records listed here.
target: human Npt2a (Homo sapiens); assay: Npt2a activity cell based assay, membrane potential dye, CHO T-REx hNpt2a cells; conditions: doxycycline-induced, depolarization by sodium phosphate influx, average or median values if tested more than once
Numbers only, as −log10 of the molar value.

Example results:
Cc1nn(-c2cc(Nc3c(C)c(-c4ccc(F)cc4)nn3CC3CC3)ncn2)c2c1C(C)(O)CC2 (racemic)
7.68
Cc1nn(-c2cc(Nc3nn(C)c(-c4ccc(F)cc4)c3C)ncn2)c(C)c1C(C)(C)O
7.30
Cc1cc(C(C)(C)O)n(-c2cc(Nc3c(C)c(-c4ccc(C(F)(F)F)cc4)nn3CC3CC3)ncn2)n1
6.24

Each molecule below has a reported value. Please supply its pIC50.
1. CCc1c(-c2ccc(F)cc2)nn(C)c1Nc1cc(-n2nc(C)c3ncccc32)ncn1
2. Cc1nn(-c2cc(Nc3c(C)nn(-c4ccc(C#N)cc4)c3C)ncn2)c(C(F)F)c1Cl

[reply]
1. 6.46
2. 8.10

* * *

target: human Npt2a (Homo sapiens, UniProt Q06495); experiment: Npt2a activity cell based assay, membrane potential dye, CHO T-REx hNpt2a cells; conditions: doxycycline-induced, depolarization by sodium phosphate influx, average or median values if tested more than once
observable: IC50 (µM)
Answers are plain numbers, in µM.

CCOC(=O)c1c(C)nn(-c2cc(Nc3c(Cl)c(-c4ccc(F)cc4)nn3CC3CC3)ncn2)c1C
0.004
COc1c(-c2ccc(F)cc2)nn(CC2CC2)c1Nc1cc(-n2nc(C)c(-c3nnc(C)o3)c2C)ncn1
0.66
Cc1nn(-c2cc(Nc3nn(CC4CC4)c(-c4ccc(F)cc4)c3C)ncn2)c(C)c1Cl
0.44

List reported IC50 for each of these compounds:
1. Cc1nn(-c2cc(Nc3c(C)c(-c4ccc(F)cc4)nn3CC3CC3)ncn2)c(C)c1O
2. Cc1nn(-c2cc(Nc3c(Cl)c(-c4ccc(F)cc4F)nn3C)ncn2)c2ccccc12
3. CCOC(=O)c1c(C)nn(-c2cc(Nc3c(C)c(-c4ccc(OC(F)(F)F)cc4)nn3CC3CC3)ncn2)c1C
4. CCc1c(-c2ccc(F)cc2)nn(CC(F)F)c1Nc1cc(-n2nc(C)c(Cl)c2C)ncn1

[reply]
1. 0.017
2. 0.31
3. 0.025
4. 0.071

Quick one: give me IC50 for each item below, same order please.
1. Cc1nn(-c2cc(Nc3nn(CC4CC4)c(-c4ccc(F)cc4)c3Cl)ncn2)c(C(F)F)c1Cl
2. CC(=O)Cc1c(C)nn(-c2cc(Nc3c(C)c(-c4ccc(F)cc4)nn3CC3CC3)ncn2)c1C
3. COCCn1nc(-c2ccc(F)cc2)c(C)c1Nc1cc(-n2nc(C)c(C(F)(F)F)c2C)ncn1
4. CCOC(=O)c1cc(C)nn1-c1cc(Nc2c(C)c(-c3ccc(C#N)cc3)nn2CC2CC2)ncn1
5. COc1c(-c2ccc(C#N)cc2)nn(CC2CC2)c1Nc1cc(-n2nc(C)c(C(C)OC)c2C)ncn1 (racemic) [Example 333]
6. Cc1cc(C(F)F)n(-c2cc(Nc3c(C)c(-c4ccc(OC(F)F)cc4)nn3CC3CC3)ncn2)n1
7. Cc1nn(-c2cc(Nc3nn(C)c(-c4ccc(F)cc4)c3C)ncn2)c(C)c1C1(O)CC1
8. Cc1nn(-c2cc(Nc3c(C)c(-c4ccc(F)cc4)nn3CC3CC3)ncn2)c(C)c1C(C)O (single isomer, unassigned) [Example 329]

[reply]
1. 1.2
2. 0.006
3. 0.008
4. 2.8
5. 0.054
6. 0.215
7. 0.15
8. 0.067

For each listed entry, give its IC50.
1. Cc1cc(C)n(-c2cc(Nc3c(C)c(-c4ccncc4)nn3CC3CC3)ncn2)n1
2. Cc1c(-c2ccc(F)cc2)nn(CC2CC2)c1Nc1cc(-n2ncc3c2CN(C(=O)OC(C)(C)C)C3)ncn1

[reply]
[1.3, 0.069]

Report IC50 for every entry below.
1. Cc1cc(C)n(-c2cc(Nc3c(C)c(-c4ccc(OC(F)F)cc4)nn3CC3CC3)ncn2)n1
2. COc1c(-c2ccc(C#N)cc2)nn(CC2CC2)c1Nc1cc(-n2nc(C)c(C(C)O)c2C)ncn1 (single isomer, unassigned) [Example 332]
3. Cc1nn(-c2cc(Nc3c(C)c(-c4ccc(F)cc4)nn3CC3CC3)ncn2)c(C)c1C(C)O (single isomer, unassigned) [Example 330]
4. CCc1c(-c2ccc(F)cc2)nn(CC2CC2)c1Nc1cc(-n2nc(C)c(C(=O)OC(C)(C)C)c2C(F)F)ncn1
5. Cc1cc(C)n(-c2cc(Nc3c(C)c(-c4ccc(C(F)F)cc4)nn3CC3CC3)ncn2)n1

[reply]
0.029
1.9
0.022
0.051
0.027

# per-item lookup of IC50; items listed below
1. Cc1c(-c2ccc(F)cc2)nn(CC2CC2)c1Nc1cc(-n2nc3c(c2C)C(C)(O)CC3)ncn1 (single isomer, unassigned) [Example 516]
2. COC(=O)Nc1c(C)nn(-c2cc(Nc3c(C)c(-c4ccc(F)cc4)nn3CC3CC3)ncn2)c1C
3. Cc1cc(C)n(-c2cc(Nc3nn(CC4CC4)c(-c4ccc(F)cc4)c3C)ncn2)n1
4. CCOC(=O)c1c(C)nn(-c2cc(Nc3nn(CC(F)F)c(-c4ccc(F)cc4)c3CC)ncn2)c1C
5. Cc1nn(-c2cc(Nc3c(C)c(-c4ccc(C(F)F)nc4)nn3C)ncn2)c(C)c1F
6. Cc1cc(C)n(-c2cc(Nc3nn(C)c(-c4ccc(F)cc4)c3CN3CC(C(F)(F)F)C3)ncn2)n1

[reply]
1: 0.031; 2: 0.81; 3: 0.69; 4: 0.041; 5: 1.35; 6: 1.05
